# Procedure details: Half life in rat after the single intravenous administration at 2.5 mg/kg
# Format: ADME, organism-based
# Parameters: dose 2.5 mg/kg, route intravenous
# Settings: in vivo
Measurement kind: half-life (min)
Please reply with the bare figure in min and do not write the unit itself.

Quick one: half-life for CO[C@H]1CC[C@@H](C(=O)c2ccc3nc4c(cc3c2)CCCO4)CC1 (stereo in doubt; form 1) ?
19.2

----------
# Procedure details: Total plasma clearance in rat after the single intravenous administration at 2.5 mg/kg
# Type: ADME, organism-based
# Set-up: dose 2.5 mg/kg, route intravenous
Measurement kind: clearance (mL/min/kg)
Number only, in mL/min/kg; omit the unit.

Return reported clearance; argument: CO[C@H]1CC[C@@H](C(=O)c2ccc3nc4c(cc3c2)CCCO4)CC1 (stereo in doubt; form 1)
91.7
